Property: pIC50; scope: individual binders
Biological target: T1, FLT-1 IgG (UniProt P17948 27-758)
T1 construct: Construct only cited from Park et al. 1994; also called FLT-IgG; FLT-1 receptor-IgG chimera; not shown: IgG part of the chimera (captured by anti-human IgG Fc)
T1 sequence (P17948 27-758): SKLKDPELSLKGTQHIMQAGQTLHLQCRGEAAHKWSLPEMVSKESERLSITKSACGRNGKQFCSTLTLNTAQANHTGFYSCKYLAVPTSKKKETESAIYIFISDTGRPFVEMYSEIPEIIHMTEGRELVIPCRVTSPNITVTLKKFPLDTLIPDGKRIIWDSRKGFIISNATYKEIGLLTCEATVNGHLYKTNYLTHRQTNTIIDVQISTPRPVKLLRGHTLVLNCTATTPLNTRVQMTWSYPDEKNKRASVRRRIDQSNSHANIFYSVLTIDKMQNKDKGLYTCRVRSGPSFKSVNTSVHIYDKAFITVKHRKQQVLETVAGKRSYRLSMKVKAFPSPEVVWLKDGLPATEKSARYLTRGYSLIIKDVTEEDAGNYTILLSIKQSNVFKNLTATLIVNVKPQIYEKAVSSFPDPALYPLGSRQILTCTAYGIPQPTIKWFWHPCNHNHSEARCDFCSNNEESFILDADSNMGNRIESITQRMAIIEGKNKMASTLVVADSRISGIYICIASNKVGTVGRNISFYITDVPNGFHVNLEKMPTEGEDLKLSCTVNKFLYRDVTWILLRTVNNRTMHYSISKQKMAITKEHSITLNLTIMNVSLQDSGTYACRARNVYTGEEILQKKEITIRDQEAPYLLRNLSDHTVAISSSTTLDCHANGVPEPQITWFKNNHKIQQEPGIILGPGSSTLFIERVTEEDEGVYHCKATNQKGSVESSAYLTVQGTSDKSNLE
Test: competition with 125I-VEGF165 for FLT-1-IgG, radioligand plate assay, no heparin
Procedure: After the supernatant was discarded, the wells were washed three times in washing buffer (0.01% Tween 80 in PBS). The plate was blocked (300 µl/well) for one hr in assay buffer (0.5% BSA, 0.03% Tween 80, 0.01% Thimerosal in PBS). The supernatant was discarded and the wells were washed. […] The supernatant was discarded, the plate washed, and individual microtiter wells were counted by gamma scintigraphy (LKB model 1277).
Scale note: pIC50 = -log10(concentration in M).

Binder	Reported Metric	Assay Result
H86A VEGF (ligand, VEGF165 mutant from 293 cells, conditioned medium) APMAEGGGQNHHEVVKFMDVYQRSYCHPIETLVDIFQEYPDEIEYIFKPSCVPLMRCGGCCNDEGLECVPTEESNITMQIMRIKPAQGQHIGEMSFLQHNKCECRPKKDRARQENPCGPCSERRKHLFVQDPQTCKCSCKNTDSRCKARQLELNERTCRCDKPRR	pIC50	10.82
D34A VEGF (ligand, VEGF165 mutant from 293 cells, conditioned medium) APMAEGGGQNHHEVVKFMDVYQRSYCHPIETLVAIFQEYPDEIEYIFKPSCVPLMRCGGCCNDEGLECVPTEESNITMQIMRIKPHQGQHIGEMSFLQHNKCECRPKKDRARQENPCGPCSERRKHLFVQDPQTCKCSCKNTDSRCKARQLELNERTCRCDKPRR	pIC50	10.96

Identify the reported pIC50 for the following entry. E103A VEGF (ligand, VEGF165 mutant from 293 cells, conditioned medium) APMAEGGGQNHHEVVKFMDVYQRSYCHPIETLVDIFQEYPDEIEYIFKPSCVPLMRCGGCCNDEGLECVPTEESNITMQIMRIKPHQGQHIGEMSFLQHNKCACRPKKDRARQENPCGPCSERRKHLFVQDPQTCKCSCKNTDSRCKARQLELNERTCRCDKPRR
10.77

Give me measured pIC50, please, for this binder: R23A VEGF (ligand, VEGF165 mutant from 293 cells, conditioned medium) APMAEGGGQNHHEVVKFMDVYQASYCHPIETLVDIFQEYPDEIEYIFKPSCVPLMRCGGCCNDEGLECVPTEESNITMQIMRIKPHQGQHIGEMSFLQHNKCECRPKKDRARQENPCGPCSERRKHLFVQDPQTCKCSCKNTDSRCKARQLELNERTCRCDKPRR
10.52

Please look at this binder and report its pIC50: D63A, E64A, E67A VEGF (ligand, VEGF165 mutant from 293 cells, conditioned medium) APMAEGGGQNHHEVVKFMDVYQRSYCHPIETLVDIFQEYPDEIEYIFKPSCVPLMRCGGCCNAAGLACVPTEESNITMQIMRIKPHQGQHIGEMSFLQHNKCECRPKKDRARQENPCGPCSERRKHLFVQDPQTCKCSCKNTDSRCKARQLELNERTCRCDKPRR
9.11

Fill in pIC50 for record R112A, E114A VEGF (ligand, VEGF165 mutant from 293 cells, conditioned medium) APMAEGGGQNHHEVVKFMDVYQRSYCHPIETLVDIFQEYPDEIEYIFKPSCVPLMRCGGCCNDEGLECVPTEESNITMQIMRIKPHQGQHIGEMSFLQHNKCECRPKKDRAAQANPCGPCSERRKHLFVQDPQTCKCSCKNTDSRCKARQLELNERTCRCDKPRR
10.89

Consider the binder D63A VEGF (ligand, VEGF165 mutant from 293 cells, conditioned medium) APMAEGGGQNHHEVVKFMDVYQRSYCHPIETLVDIFQEYPDEIEYIFKPSCVPLMRCGGCCNAEGLECVPTEESNITMQIMRIKPHQGQHIGEMSFLQHNKCECRPKKDRARQENPCGPCSERRKHLFVQDPQTCKCSCKNTDSRCKARQLELNERTCRCDKPRR . State its measured pIC50.
10.59

Fill in reported pIC50 for this entry: E72A, E73A VEGF (ligand, VEGF165 mutant from 293 cells, conditioned medium) APMAEGGGQNHHEVVKFMDVYQRSYCHPIETLVDIFQEYPDEIEYIFKPSCVPLMRCGGCCNDEGLECVPTAASNITMQIMRIKPHQGQHIGEMSFLQHNKCECRPKKDRARQENPCGPCSERRKHLFVQDPQTCKCSCKNTDSRCKARQLELNERTCRCDKPRR
10.52
